study-system: HLA-A*11:01
experimental-protocol: IEDB peptide-MHC binding, purified MHC/competitive/radioactivity; filed as Kd, often an IC50 or EC50 that approximates it; bounds were set here for any values at or beyond the usual limits of such assays
experimental-setup: source organism: Mammarenavirus guanaritoense
endpoint-name: Kd

Dear colleague, I am looking for the recorded Kd of the following sequence: NYVHCFRKPH
≥ 69.7 µM

###

study-system: HLA-B*27:05
experimental-protocol: IEDB peptide-MHC binding, purified MHC/direct/fluorescence; filed as Kd, often an IC50 or EC50 that approximates it; bounds were set here for any values at or beyond the usual limits of such assays
experimental-setup: source organism: Influenza A virus (A/swine/Hong Kong/273/1994(H1N1))
endpoint-name: Kd (µM)
Form entry: value (µM) — number only.

Dear colleague, I am looking for the recorded Kd of the following sequence: GMFNMLSTV
10.1

###

study-system: HLA-A*11:01
experimental-protocol: IEDB peptide-MHC binding, purified MHC/direct/fluorescence; filed as Kd, often an IC50 or EC50 that approximates it; bounds were set here for any values at or beyond the usual limits of such assays
experimental-setup: source organism: Coxiella burnetii
endpoint-name: pKd
# reply with the number alone; pKd is -log10 of concentration in mol/L

Dear colleague, I am looking for the recorded pKd of the following sequence: KFFMVHSLK
6.22

###

study-system: HLA-A*11:01
experimental-protocol: IEDB peptide-MHC binding, purified MHC/direct/fluorescence; filed as Kd, often an IC50 or EC50 that approximates it; bounds were set here for any values at or beyond the usual limits of such assays
experimental-setup: source organism: Vibrio cholerae
Measured Kd, listed per entry for reference.

DSDPMDGCE | ≥ 20000 nM

Dear colleague, I am looking for the recorded Kd of the following sequence: RVHGATVFK
47.2 nM

###

study-system: HLA-B*58:01
experimental-protocol: IEDB peptide-MHC binding, purified MHC/direct/fluorescence; filed as Kd, often an IC50 or EC50 that approximates it; bounds were set here for any values at or beyond the usual limits of such assays
experimental-setup: source organism: Haemophilus influenzae
endpoint-name: pKd
# reply with the number alone; pKd is -log10 of concentration in mol/L

Dear colleague, I am looking for the recorded pKd of the following sequence: ILYDTGSSW
7.03

###

study-system: HLA-A*80:01
experimental-protocol: IEDB peptide-MHC binding, purified MHC/direct/fluorescence; filed as Kd, often an IC50 or EC50 that approximates it; bounds were set here for any values at or beyond the usual limits of such assays
experimental-setup: source organism: West Nile virus strain PTRoxo
endpoint-name: Kd

Dear colleague, I am looking for the recorded Kd of the following sequence: EIPDVLNSL
≥ 20 µM

###

study-system: HLA-A*02:02
experimental-protocol: IEDB peptide-MHC binding, purified MHC/competitive/radioactivity; filed as Kd, often an IC50 or EC50 that approximates it; bounds were set here for any values at or beyond the usual limits of such assays
experimental-setup: source organism: Vaccinia virus Copenhagen
endpoint-name: pKd
# reply with the number alone; pKd is -log10 of concentration in mol/L

Dear colleague, I am looking for the recorded pKd of the following sequence: VLIAGIILLI
8.05

###

study-system: HLA-B*45:01
experimental-protocol: IEDB peptide-MHC binding, purified MHC/competitive/radioactivity; filed as Kd, often an IC50 or EC50 that approximates it; bounds were set here for any values at or beyond the usual limits of such assays
experimental-setup: source organism: Mammarenavirus guanaritoense
endpoint-name: pKd
# reply with the number alone; pKd is -log10 of concentration in mol/L

Dear colleague, I am looking for the recorded pKd of the following sequence: TEQFINYCL
6.89
